Test system: HT-1080
Experiment: Cytotoxicity against human HT-1080 cells incubated for 48 hrs by CCK-8 assay
Assay type: functional, cell-based
Details: HT-1080, 48 h
Entries and their measured pIC50 follow.
pIC50 is a log-scale quantity: -log10 of the concentration expressed in molar.

Read the entry COc1ccc(N(C(=O)CCl)C(C(=O)NCCc2ccccc2)c2cccs2)cc1Cl (centres undefined) and write its reported pIC50.
6.22

Others:
Read the entry COc1ccc2c(c1)C(=O)C=C(NCCC(=O)Nc1ccc(N(C(=O)CCl)C(C(=O)NCCc3ccccc3)c3cccs3)cc1)C2=O (centres undefined) and write its reported pIC50.
5.29

Read the entry O=C(CCOCCNC1=C(Cl)C(=O)c2ccccc2C1=O)Nc1ccc(N(C(=O)CCl)C(C(=O)NCCc2ccccc2)c2cccs2)cc1 (centres undefined) and write its reported pIC50.
5.74

Read the entry O=C(CCCCCNC1=CC(=O)c2ccccc2C1=O)Nc1ccc(N(C(=O)CCl)C(C(=O)NCCc2ccccc2)c2cccs2)cc1 (centres undefined) and write its reported pIC50.
5.80

###

Entries and their measured pIC50 follow.
Test system: HT-1080
Assay: Cytotoxicity against human HT-1080 cells incubated for 48 hrs by CCK-8 assay
Assay type: functional, cell-based
Settings: HT-1080, 48 h
pIC50 is a log-scale quantity: -log10 of the concentration expressed in molar.

Read the entry O=C(CCCNC1=CC(=O)c2ccccc2C1=O)Nc1ccc(N(C(=O)CCl)C(C(=O)NCCc2ccccc2)c2cccs2)cc1 (centres undefined) and write its reported pIC50.
5.64

Others:
Read the entry COc1ccc2c(c1)C(=O)C=C(NCCOCCC(=O)Nc1ccc(N(C(=O)CCl)C(C(=O)NCCc3ccccc3)c3cccs3)cc1)C2=O (centres undefined) and write its reported pIC50.
5.70

Read the entry CC1=C(NCCC(=O)Nc2ccc(N(C(=O)CCl)C(C(=O)NCCc3ccccc3)c3cccs3)cc2)C(=O)c2ccccc2C1=O (centres undefined) and write its reported pIC50.
5.66

Read the entry O=C(CCCNC1=C(Cl)C(=O)c2ccccc2C1=O)Nc1ccc(N(C(=O)CCl)C(C(=O)NCCc2ccccc2)c2cccs2)cc1 (centres undefined) and write its reported pIC50.
5.80

###

Test system: HT-1080
Test: Cytotoxicity against human HT-1080 cells incubated for 48 hrs by CCK-8 assay
Assay type: functional, cell-based
Details: HT-1080, 48 h
ENDPOINT_NAME: pIC50
pIC50 is a log-scale quantity: -log10 of the concentration expressed in molar.

Solved entries (count: 3):
Read the entry CC1=C(NCCCC(=O)Nc2ccc(N(C(=O)CCl)C(C(=O)NCCc3ccccc3)c3cccs3)cc2)C(=O)c2ccccc2C1 (stereo not given) and write its reported pIC50.
5.47

Read the entry O=C1C=C(N2CCC(C(=O)Nc3ccc(N(C(=O)CCl)C(C(=O)NCCc4ccccc4)c4cccs4)cc3)CC2)C(=O)c2ccccc21 (stereo not given) and write its reported pIC50.
4.38

Read the entry O=C(CCNC1=C(Cl)C(=O)c2ccccc2C1=O)Nc1ccc(N(C(=O)CCl)C(C(=O)NCCc2ccccc2)c2cccs2)cc1 (stereo not given) and write its reported pIC50.
5.85

Others:
Read the entry O=C(CCCNC1=CC(=O)c2cc3ccccc3cc2C1=O)Nc1ccc(N(C(=O)CCl)C(C(=O)NCCc2ccccc2)c2cccs2)cc1 (stereo not given) and write its reported pIC50.
5.43

Read the entry O=C(CCSC1=CC(=O)c2ccccc2C1=O)Nc1ccc(N(C(=O)CCl)C(C(=O)NCCc2ccccc2)c2cccs2)cc1 (stereo not given) and write its reported pIC50.
5.49

Sourced from ChEMBL document CHEMBL5500352
